- Measured target: CB1R (U2 OS cells, reporter gene assay) (Homo sapiens, UniProt P21554)
- Construct: receptor stably expressed in U2 OS cells
- Sequence (P21554 whole entry): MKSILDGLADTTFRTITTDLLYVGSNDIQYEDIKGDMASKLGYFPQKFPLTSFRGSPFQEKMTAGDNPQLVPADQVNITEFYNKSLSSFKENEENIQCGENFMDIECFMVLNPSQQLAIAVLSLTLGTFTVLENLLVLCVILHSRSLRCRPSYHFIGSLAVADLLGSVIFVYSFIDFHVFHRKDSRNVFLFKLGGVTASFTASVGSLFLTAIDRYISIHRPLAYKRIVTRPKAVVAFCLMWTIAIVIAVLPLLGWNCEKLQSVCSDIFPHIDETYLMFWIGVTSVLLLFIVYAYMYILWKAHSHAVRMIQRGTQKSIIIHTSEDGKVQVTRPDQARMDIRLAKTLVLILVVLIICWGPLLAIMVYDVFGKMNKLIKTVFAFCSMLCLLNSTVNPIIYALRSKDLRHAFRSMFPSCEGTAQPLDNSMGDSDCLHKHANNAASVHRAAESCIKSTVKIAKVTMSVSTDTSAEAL
- Run description: SRE-luciferase reporter gene assay, agonism
- Setup conditions: agonist mode
pEC50: −log10 of the molar value.

Compound structure string | pEC50
CCCCCCC(C)(C)c1cc(O)c2c(c1)OC(C)(C)[C@@H]1CC=C(CO)C[C@@H]21 | 9.70

====

- Measured target: hCB2R (human CB2R) (Homo sapiens)
- Sequence (P34972 whole entry): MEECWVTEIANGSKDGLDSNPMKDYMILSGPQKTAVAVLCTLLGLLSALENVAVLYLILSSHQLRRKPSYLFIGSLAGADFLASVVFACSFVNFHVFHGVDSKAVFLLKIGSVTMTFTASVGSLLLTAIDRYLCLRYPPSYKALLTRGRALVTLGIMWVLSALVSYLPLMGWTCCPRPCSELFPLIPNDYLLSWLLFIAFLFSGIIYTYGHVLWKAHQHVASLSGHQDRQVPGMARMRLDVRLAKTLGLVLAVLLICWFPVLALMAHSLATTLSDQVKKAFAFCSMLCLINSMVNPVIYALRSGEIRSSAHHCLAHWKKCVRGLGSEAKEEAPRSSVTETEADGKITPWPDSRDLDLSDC
pKi: −log10 of the molar value.

Compound | pKi
C=C[C@@H](/C=C/c1ccc(O)cc1)c1ccc(O)cc1 [trans-hinokiresinol] | 5.02
CN1CCCCC1Cn1cc(C(=O)c2cc([N+](=O)[O-])ccc2I)c2ccccc21 (stereo not drawn) [AM-1241, reference compound] | 8.18
C=C[C@@H](/C=C\c1ccc(O)cc1)c1ccc(O)cc1 [cis-hinokiresinol] | 4.91
